Data credit: paper PMC9837764

test: Pharmacokinetics in mouse plasma; type: in vivo, CD1 mice (Mus musculus); details: both sexes, CD1, mouse, plasma, po; mice; 30 mg/kg (p.o.)
MEASUREMENT_LABEL: AUC (ng·h/mL)
Answers are plain numbers, in ng·h/mL.

Please report the recorded AUC for c1coc(CNc2ncnc3[nH]cnc23)c1 [MB-905, N6-furfurylaminopurine] .
356

====

assay: Pharmacokinetics and metabolites in rat plasma; format: in vivo, Sprague-Dawley rats (Rattus norvegicus); details: both sexes, Sprague-Dawley, rat, plasma, po; rats; 30 mg/kg (p.o.)
MEASUREMENT_LABEL: AUC

Could you tell me which AUC is on file for `c1coc(CNc2ncnc3[nH]cnc23)c1` ?
1500 ng·h/mL

====

test: Pharmacokinetics in mouse plasma; assay type: in vivo, CD1 mice (Mus musculus); settings: both sexes, CD1, mouse, plasma, po, 550 mg/kg, mice; 550 mg/kg (p.o.); read-out: F
MEASUREMENT_LABEL: bioavailability (%)
Numbers only, in %.

Tell me the measured bioavailability of `c1coc(CNc2ncnc3[nH]cnc23)c1` , please.
36.1

====

assay: Pharmacokinetics and metabolites in rat plasma; format: in vivo, Sprague-Dawley rats (Rattus norvegicus); settings: both sexes, Sprague-Dawley, rat, plasma, po, 30 mg/kg, rats; 30 mg/kg (p.o.); read-out: F
MEASUREMENT_LABEL: bioavailability (%)
Give bare numbers, in %.

# query: bioavailability of entry `c1coc(CNc2ncnc3[nH]cnc23)c1`
64.7

====

assay: Pharmacokinetics in mouse plasma; type: in vivo, CD1 mice (Mus musculus); details: both sexes, CD1, mouse, plasma, po, 30 mg/kg, mice; read-out: Oral bioavailability
MEASUREMENT_LABEL: bioavailability

Bench note: what bioavailability did `c1coc(CNc2ncnc3[nH]cnc23)c1` show?
> 50%

====

test: Pharmacokinetics in mouse plasma; type: in vivo, CD1 mice (Mus musculus); conditions: both sexes, CD1, mouse, plasma, iv; mice; 3 mg/kg (i.v.)
MEASUREMENT_LABEL: Cmax (ng/mL)
Numbers only, in ng/mL.

Which Cmax value is on record for `c1coc(CNc2ncnc3[nH]cnc23)c1` ?
155

====

assay: Pharmacokinetics and metabolites in rat plasma; type: in vivo, Sprague-Dawley rats (Rattus norvegicus); settings: both sexes, Sprague-Dawley, rat, plasma, iv; rats; 1 mg/kg (i.v.); read-out: Vz
MEASUREMENT_LABEL: Vd (L/kg)
Answers are plain numbers, in L/kg.

What Vd value was documented for this compound, `c1coc(CNc2ncnc3[nH]cnc23)c1` ?
10.4

====

experiment: Pharmacokinetics in mouse plasma; type: in vivo, CD1 mice (Mus musculus); conditions: both sexes, CD1, mouse, plasma, po, 30 mg/kg, mice; 30 mg/kg (p.o.); read-out: F
MEASUREMENT_LABEL: bioavailability (%)
One number for each entry, in %.

Value lookup for bioavailability; key = c1coc(CNc2ncnc3[nH]cnc23)c1 [MB-905, N6-furfurylaminopurine]
53.5

====

experiment: Pharmacokinetics in mouse plasma; format: in vivo, CD1 mice (Mus musculus); conditions: both sexes, CD1, mouse, plasma, po; mice; 30 mg/kg (p.o.)
MEASUREMENT_LABEL: Cmax (ng/mL)
Give bare numbers, in ng/mL.

Cmax for `c1coc(CNc2ncnc3[nH]cnc23)c1` ?
570

====

experiment: Pharmacokinetics in mouse plasma; format: in vivo, CD1 mice (Mus musculus); conditions: both sexes, CD1, mouse, plasma, po; mice; 550 mg/kg (p.o.); read-out: Ke (converted)
MEASUREMENT_LABEL: k el (s⁻¹)
One number for each entry, in s⁻¹.

// returns reported k el for input `c1coc(CNc2ncnc3[nH]cnc23)c1`
6.94e-05
